Reference source for all entries: the NIST ThermoML archive (doi:10.1016/j.jct.2008.07.005)

Here, each record is paired with measured mass density data.
experiment_notes: xn = mol fraction of the nth substance listed
measurement_parameters: 303.15 K; 98.93 kPa; Liquid; x1 = 0.17
Provide only the numeric value, understood in kg/m3.

Answered cases to consult:
For OCC(O)CO [glycerol] + O the molecule record lists mass density as 1124.3

For OCCCO [propan-1,3-diol] + O the molecule record lists mass density as 1029.04

For CC(O)CO (centres undefined) [1,2-propanediol] + O the molecule record lists mass density as 1030.11

Turning now to a further molecule:
For CCCO [propan-1-ol] + O the molecule record lists mass density as 924.32

----------
experiment_notes: xn = mol fraction of the nth substance listed
measurement_parameters: 293.15 K; 98.93 kPa; Liquid; x1 = 0.01
Here, each record is paired with measured mass density data.
Provide only the numeric value, understood in kg/m3.

Answered cases to consult:
For CCCO [propan-1-ol] + O the compound record lists mass density as 992.36

For OCCCO [propan-1,3-diol] + O the compound record lists mass density as 1000.81

For CC(O)CO (centres undefined) [1,2-propanediol] + O the compound record lists mass density as 1000.93

Turning now to a further compound:
For OCC(O)CO [glycerol] + O the compound record lists mass density as 1009.9
